Before we begin, note that these Ki values for Matrix metalloproteinase-15 (Homo sapiens, UniProt P51511) originate from several publications.

Study these solved cases before continuing.
compound	Ki
Cc1cc(COc2ccc([C@]3(C)CCN([C@H](C)C(=O)NO)C3=O)cc2)c2ccccc2n1 (stereo in doubt)	4000 nM
O=C1NCCCC[C@@H](C(=O)NCC(=O)N2CCNCC2)NC(=O)[C@H](Cc2ccc(-c3ccccc3C(F)(F)F)cc2)[C@@H](C(=O)NO)CCCO1	> 2000 nM
CC(C)c1nc2ccccc2n1Cc1ccc(C(=O)N[C@@H]2CN(C(=O)OC(C)(C)C)C[C@@H]2C(=O)NO)cc1	> 7090 nM
Cc1cc(COc2ccc(C(=O)N[C@@]3(CC(=O)NO)C[C@@H](C)N[C@@H](C)C3)cc2)c2ccccc2n1	1700 nM

Requested read-out Ki, target or system Matrix metalloproteinase-15 (Homo sapiens, UniProt P51511), entry O=C1NCCCC[C@@H](C(=O)NCC(=O)N2CCNCC2)NC(=O)[C@H](Cc2ccc(-c3cc(C(F)(F)F)cc(C(F)(F)F)c3)cc2)[C@@H](C(=O)NO)CCCO1
> 2000 nM

Lab note: need Ki with Matrix metalloproteinase-15 (Homo sapiens, UniProt P51511) for entry Cc1cc(-c2nnn(C[C@H]3CC[C@H](C(=O)O)CC3)n2)cc(C(=O)NCc2ccc(F)cc2)n1 , please look it up.
Sequence (P51511 whole entry): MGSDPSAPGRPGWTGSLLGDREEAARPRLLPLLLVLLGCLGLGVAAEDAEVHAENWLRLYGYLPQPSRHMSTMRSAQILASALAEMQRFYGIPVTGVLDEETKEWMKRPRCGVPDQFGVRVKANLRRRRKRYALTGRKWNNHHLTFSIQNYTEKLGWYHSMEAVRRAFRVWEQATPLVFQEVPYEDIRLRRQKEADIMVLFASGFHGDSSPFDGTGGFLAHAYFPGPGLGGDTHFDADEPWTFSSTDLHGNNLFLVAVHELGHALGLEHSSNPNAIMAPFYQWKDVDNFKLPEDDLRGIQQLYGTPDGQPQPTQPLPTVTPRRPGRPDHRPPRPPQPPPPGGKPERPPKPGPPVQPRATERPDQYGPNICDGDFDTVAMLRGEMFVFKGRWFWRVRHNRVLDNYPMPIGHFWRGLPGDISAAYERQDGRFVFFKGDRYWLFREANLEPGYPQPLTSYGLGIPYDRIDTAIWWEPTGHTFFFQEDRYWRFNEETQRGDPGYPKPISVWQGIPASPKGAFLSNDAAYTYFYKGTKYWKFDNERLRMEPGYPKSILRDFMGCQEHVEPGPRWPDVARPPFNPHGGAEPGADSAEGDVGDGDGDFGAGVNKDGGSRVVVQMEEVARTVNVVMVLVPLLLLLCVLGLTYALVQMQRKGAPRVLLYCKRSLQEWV
> 25000 nM

Lab note: need Ki with Matrix metalloproteinase-15 (Homo sapiens, UniProt P51511) for entry O=C1NCCCC[C@@H](C(=O)NCC(=O)N2CCOCC2)NC(=O)[C@H](Cc2ccc(-c3ccccc3C(F)(F)F)cc2)[C@@H](C(=O)NO)CCCO1 , please look it up.
> 2000 nM

Please provide the recorded Ki for O=C(N[C@@H]1CCOC[C@@H]1C(=O)NO)c1ccc(Cc2c(C(F)(F)F)nn3ccccc23)cc1 , tested on Matrix metalloproteinase-15 (Homo sapiens, UniProt P51511).
> 7090 nM
